Taken from patent US5055613A.

System: fed hepatocytes
PROTOCOL: Fatty acid and cholesterol synthesis in isolated fed hepatocytes
Assay type: cell-based, rat
MEASUREMENT PARAMETERS: 0.5 mM, No Addition 0.024 ± 0.004
QUANTITY: Fatty Acid Synthesis

- COMPOUND: "CC(C)(C)CCCCCCCCCCCC(O)(CC(=O)O)CC(=O)O [Prior Art Compound, reference compound]"
  QUANTITY: "Fatty Acid Synthesis"
  REPORTED: "0.010 ± 0.002 mmoles/min/gm wet weight"
- COMPOUND: "CC(C)(CO)CCCCCCCCCCCC(O)(CC(=O)O)CC(=O)O [Example 14]"
  QUANTITY: "Fatty Acid Synthesis"
  REPORTED: "0.003 ± 0.001 mmoles/min/gm wet weight"
- COMPOUND: "CC(C)(CCCCCCCCCCCC(O)(CC(=O)O)CC(=O)O)C(=O)O [Example 11]"
  QUANTITY: "Fatty Acid Synthesis"
  REPORTED: "0.003 ± 0.001 mmoles/min/gm wet weight"
- COMPOUND: "COC(=O)C(C)(C)CCCCCCCCCCCC(O)(CC(=O)O)CC(=O)O [Example 10]"
  QUANTITY: "Fatty Acid Synthesis"
  REPORTED: "0.003 ± 0.001 mmoles/min/gm wet weight"
